target of assay: Endothelin-1 receptor (Sus scrofa)
Sequence (Q29010 whole entry): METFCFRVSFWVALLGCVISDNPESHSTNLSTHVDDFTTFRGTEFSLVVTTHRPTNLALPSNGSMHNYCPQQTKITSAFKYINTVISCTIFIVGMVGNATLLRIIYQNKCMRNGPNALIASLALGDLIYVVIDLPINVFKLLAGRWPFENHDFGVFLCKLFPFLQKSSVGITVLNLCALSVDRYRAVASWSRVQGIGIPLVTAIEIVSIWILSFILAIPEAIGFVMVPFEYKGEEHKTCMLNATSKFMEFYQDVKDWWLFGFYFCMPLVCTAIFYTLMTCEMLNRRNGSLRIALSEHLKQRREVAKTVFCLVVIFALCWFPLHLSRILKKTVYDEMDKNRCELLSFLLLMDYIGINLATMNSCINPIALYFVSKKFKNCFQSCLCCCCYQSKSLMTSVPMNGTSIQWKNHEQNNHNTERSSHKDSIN
measurement protocol: In vitro inhibition of [125I]ET1 binding to Endothelin A receptor in porcine aortic membrane from endothelial cells
recorded conditions: in the assay text read “with endothelium removed” for “from endothelial cells”
pIC50: −log10 of the molar value.
assay endpoint: pIC50

// solved cases for pIC50 follow
Return reported pIC50; argument: COc1cccc(Oc2c(NS(=O)(=O)c3ccc(C(C)(C)C)cc3)ncnc2OCCCOc2ncc(C)cn2)c1
7.03

Return reported pIC50; argument: Cc1ccc(-c2c(NS(=O)(=O)c3cccs3)ncnc2OCCOc2ncc(Br)cn2)cc1
8.51

Return reported pIC50; argument: CCc1ccc(-c2c(NS(=O)(=O)c3ccc(C(C)(C)C)cc3)ncnc2OCCOc2ncc(SC)cn2)cc1
10.89

Return reported pIC50; argument: COc1cccc(Oc2c(NS(=O)(=O)c3ccc(C(C)(C)C)cc3)ncnc2OCCOc2ncccn2)c1
8.72

Return reported pIC50; argument: CSc1cnc(OCCOc2ncnc(NS(=O)(=O)c3ccc(C(C)(C)C)cc3)c2-c2ccc3c(c2)OCO3)nc1
11.96

A. Cc1ccc(-c2c(NS(=O)(=O)c3ccc(I)cc3)ncnc2OCCOc2ncc(Br)cn2)cc1
B. COc1ccccc1Sc1c(NS(=O)(=O)c2ccc(C(C)(C)C)cc2)ncnc1OCCOc1ncc(Br)cn1
When their pIC50 values are compared, which is larger, A or B ? Return value: the label identifying the chosen record.
B

I. COc1ccccc1Oc1c(NS(=O)(=O)c2ccc(C(C)(C)C)cc2)nc(-c2ncccn2)nc1OCCO [BOSENTAN SODIUM]
II. COc1ccccc1Oc1c(NS(=O)(=O)c2ccc(C(C)(C)C)cc2)ncnc1OCCOc1ncc(Br)cn1
When their pIC50 values are compared, which is larger, I or II ? Return value: the label identifying the chosen record.
II
(II: 11.41, I: 8.12)

1. COc1cccc(Oc2c(NS(=O)(=O)c3ccc(C(C)(C)C)cc3)ncnc2OCCOCc2ccccc2)c1
2. CSc1cnc(OCCOc2ncnc(NS(=O)(=O)c3ccc(C(C)(C)C)cc3)c2-c2ccc(C(C)C)cc2)nc1
3. COc1ccc(S(=O)(=O)Nc2ncnc(OCCOc3ncc(Br)cn3)c2-c2ccc(C)cc2)cc1OC
4. Cc1ccc(-c2c(NS(=O)(=O)c3ccc(C(C)(C)C)cc3)ncnc2OCCOc2ncccn2)cc1
5. Cc1ccc(-c2c(NS(=O)(=O)c3ccc(-c4ccccn4)s3)ncnc2OCCOc2ncc(Br)cn2)cc1
Rank by pIC50 (largest to smallest). Labels, requested order.
4, 3, 2, 5, 1
(4: 9.96, 3: 9.19, 2: 8.92, 5: 8.47, 1: 6.77)

P. COc1cccc(Oc2c(NS(=O)(=O)c3ccc(C(C)(C)C)cc3)ncnc2OCCO)c1
Q. COc1cccc(Oc2c(NS(=O)(=O)c3ccc(C(C)(C)C)cc3)ncnc2OCCOc2ncc(C)cn2)c1
Please indicate which has the smaller reported pIC50: P , or Q . Return value: the label identifying the chosen record.
P
